Where these numbers come from: PubChem BioAssay (NCI)

System: EKVX NSCLC
Experiment: NCI tumour cell line growth inhibition, 48 h
Would you mind telling me the reported TGI of each entry?

Study these solved cases before continuing.
O=[As](O)(O)c1ccc2nc3cc([As](=O)(O)O)ccc3nc2c1; > 100 µM
O=C1NC(S(=O)(=O)O)=NNC12c1ccccc1-c1ccccc12; > 10 µM

Hello, I would appreciate it if you could give TGI for each entry below.
1. Cc1c(-c2ccccc2)c(C#N)c2nnn(-c3cccc(Cl)c3)c(=O)n12
2. COC(=O)C(=O)C(C(=O)C(=O)Nc1ccc(C)cc1)c1nc2ccc(C(=O)c3ccccc3)cc2[nH]c1=O (stereo unspecified)
3. COC(=O)C(C(=O)C(=O)Nc1ccc(OC)cc1[N+](=O)[O-])c1nc2cc(C)c(C)cc2[nH]c1=O (stereo unspecified)
4. COc1ccc(/C=c2/sc3n(c2=O)NC(c2ccc(Cl)cc2)NN=3)cc1 (stereo unspecified)

Ans.
1: > 100 µM; 2: > 100 µM; 3: > 100 µM; 4: > 100 µM
